- Test system: MDA-MB-468 breast
- methodNotes: NCI tumour cell line growth inhibition, 48 h; in the data active = GI50 below about 0.43 µM; inactive = the rest
Labels: Y = active, N = inactive

compoundSmiles | target | categoryLabel
CN1CCN(C(=O)OCc2nc3c(N4CCOCC4)nc(Cl)nc3n2C)CC1 | MDA-MB-468 breast | N
O=C(N/N=C/c1ccccc1O)c1ccccc1Nc1ccnc(C(F)(F)F)c1 | MDA-MB-468 breast | Y
CCN(CC)c1ccc(/C=C/c2ccc3cc(C)ccc3[n+]2CC)cc1 | MDA-MB-468 breast | Y
CN1CCN(c2ccc(C(=O)/C=C/c3cc(Br)ccc3F)cc2)CC1 | MDA-MB-468 breast | N
